Data origin, for the record: paper PMC11897524

target: MST1R (Homo sapiens)
Sequence (Q04912 25-1400): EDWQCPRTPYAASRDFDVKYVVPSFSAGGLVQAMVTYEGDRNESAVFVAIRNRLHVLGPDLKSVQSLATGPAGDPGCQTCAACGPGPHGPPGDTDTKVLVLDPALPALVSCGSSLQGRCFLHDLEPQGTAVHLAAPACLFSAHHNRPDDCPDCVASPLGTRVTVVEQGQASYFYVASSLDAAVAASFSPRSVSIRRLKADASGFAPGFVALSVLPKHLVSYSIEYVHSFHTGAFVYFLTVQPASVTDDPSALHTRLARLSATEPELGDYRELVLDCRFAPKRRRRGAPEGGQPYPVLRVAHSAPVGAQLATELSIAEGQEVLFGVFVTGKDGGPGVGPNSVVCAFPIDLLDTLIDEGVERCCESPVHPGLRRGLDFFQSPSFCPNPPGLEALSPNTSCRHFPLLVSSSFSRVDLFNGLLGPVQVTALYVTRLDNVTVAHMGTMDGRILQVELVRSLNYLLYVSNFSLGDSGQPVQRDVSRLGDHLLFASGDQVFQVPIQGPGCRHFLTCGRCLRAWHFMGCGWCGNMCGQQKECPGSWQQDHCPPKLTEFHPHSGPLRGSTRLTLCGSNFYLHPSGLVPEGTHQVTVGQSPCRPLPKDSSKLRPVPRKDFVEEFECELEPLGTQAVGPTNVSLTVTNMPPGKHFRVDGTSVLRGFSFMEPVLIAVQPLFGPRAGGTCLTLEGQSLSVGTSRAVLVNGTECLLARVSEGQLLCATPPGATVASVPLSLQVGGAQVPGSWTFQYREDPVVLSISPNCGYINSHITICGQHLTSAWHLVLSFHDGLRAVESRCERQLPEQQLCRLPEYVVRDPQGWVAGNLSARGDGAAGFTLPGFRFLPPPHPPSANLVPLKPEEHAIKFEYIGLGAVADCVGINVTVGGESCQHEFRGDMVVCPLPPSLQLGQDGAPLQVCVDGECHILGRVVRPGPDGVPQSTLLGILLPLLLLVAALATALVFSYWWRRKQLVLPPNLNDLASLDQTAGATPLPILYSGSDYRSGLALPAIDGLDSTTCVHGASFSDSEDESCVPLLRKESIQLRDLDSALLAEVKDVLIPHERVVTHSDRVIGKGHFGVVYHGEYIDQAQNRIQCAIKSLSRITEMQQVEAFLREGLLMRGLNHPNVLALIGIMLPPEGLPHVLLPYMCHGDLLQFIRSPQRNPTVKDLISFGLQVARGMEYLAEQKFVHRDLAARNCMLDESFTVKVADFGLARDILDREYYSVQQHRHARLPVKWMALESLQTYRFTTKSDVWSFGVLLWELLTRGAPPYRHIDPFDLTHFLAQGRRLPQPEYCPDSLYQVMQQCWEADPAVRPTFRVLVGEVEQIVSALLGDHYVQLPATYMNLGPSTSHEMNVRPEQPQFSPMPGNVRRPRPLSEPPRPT
pIC50: −log10 of the molar value.
ATTRIBUTE MEASURED: pIC50

pIC50 lookup needed for CCS(=O)(=O)Cc1cnc(Oc2c(F)cc(F)cc2OCCCCOc2ccc(/C=C/c3cc(OC)cc(OC)c3)cc2)c(-c2cc(C)c3c(=O)[nH]ccn23)c1 , thanks.
< 5.00

====

target: PTK6 (Homo sapiens, UniProt Q13882)
Sequence (Q13882 whole entry): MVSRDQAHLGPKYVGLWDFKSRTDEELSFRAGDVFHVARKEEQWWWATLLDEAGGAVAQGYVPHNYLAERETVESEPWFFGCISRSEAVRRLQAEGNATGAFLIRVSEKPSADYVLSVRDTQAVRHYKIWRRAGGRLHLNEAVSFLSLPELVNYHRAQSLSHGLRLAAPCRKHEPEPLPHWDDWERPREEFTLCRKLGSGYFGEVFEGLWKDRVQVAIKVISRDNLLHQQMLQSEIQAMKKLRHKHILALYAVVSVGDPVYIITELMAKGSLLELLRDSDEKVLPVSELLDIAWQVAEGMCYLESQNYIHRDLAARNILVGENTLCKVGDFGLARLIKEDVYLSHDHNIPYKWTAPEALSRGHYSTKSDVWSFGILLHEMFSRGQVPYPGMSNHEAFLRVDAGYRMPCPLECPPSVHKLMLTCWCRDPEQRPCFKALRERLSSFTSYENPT
pIC50: −log10 of the molar value.
ATTRIBUTE MEASURED: pIC50

I would be grateful if you could share the reported pIC50 for CCS(=O)(=O)Cc1cnc(Oc2c(F)cc(F)cc2OCCCCOc2ccc(/C=C/c3cc(OC)cc(OC)c3)cc2)c(-c2cc(C)c3c(=O)[nH]ccn23)c1 .
< 5.00

====

molecular target: BRD4 (Homo sapiens, UniProt O60885); assay: NanoBRET assay in HEK293T cells; assay type: cell-based; parameters: NanoLuc BRD4/STAT3 FL Fusion Vector DNA; expressed in transfected cells; host or cells: HEK293T
ATTRIBUTE MEASURED: pIC50
Reminder that pIC50 means the negative base-10 logarithm of the concentration expressed in mol/L.

Item under review: CCS(=O)(=O)Cc1cnc(Oc2c(F)cc(F)cc2OCCCCOc2ccc(/C=C/c3cc(OC)cc(OC)c3)cc2)c(-c2cc(C)c3c(=O)[nH]ccn23)c1 [BST-4] . Reported pIC50?
8.59

====

Target chain: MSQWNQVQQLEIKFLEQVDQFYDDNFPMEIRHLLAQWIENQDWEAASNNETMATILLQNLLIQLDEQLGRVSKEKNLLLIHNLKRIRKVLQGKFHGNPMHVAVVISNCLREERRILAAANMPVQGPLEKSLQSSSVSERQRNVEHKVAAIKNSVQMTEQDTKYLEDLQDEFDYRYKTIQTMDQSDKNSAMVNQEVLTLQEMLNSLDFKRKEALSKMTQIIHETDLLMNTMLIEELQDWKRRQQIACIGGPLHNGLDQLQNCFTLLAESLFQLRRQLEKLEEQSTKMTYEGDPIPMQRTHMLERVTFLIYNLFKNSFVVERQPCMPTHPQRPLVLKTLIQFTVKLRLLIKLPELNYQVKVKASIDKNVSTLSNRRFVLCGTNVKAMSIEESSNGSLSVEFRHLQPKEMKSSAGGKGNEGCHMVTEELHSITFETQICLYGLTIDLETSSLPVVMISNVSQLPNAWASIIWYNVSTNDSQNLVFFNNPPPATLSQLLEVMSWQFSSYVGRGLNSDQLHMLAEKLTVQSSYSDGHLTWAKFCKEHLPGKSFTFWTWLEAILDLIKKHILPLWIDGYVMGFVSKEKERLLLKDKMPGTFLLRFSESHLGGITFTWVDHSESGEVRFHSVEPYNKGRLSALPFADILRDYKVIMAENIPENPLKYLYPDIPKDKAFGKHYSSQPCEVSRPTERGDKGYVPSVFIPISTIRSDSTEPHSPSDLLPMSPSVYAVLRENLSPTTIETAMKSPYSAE
ATTRIBUTE MEASURED: IC50

So what does the record say about IC50 for CCS(=O)(=O)Cc1cnc(Oc2c(F)cc(F)cc2OCCCCOc2ccc(/C=C/c3cc(OC)cc(OC)c3)cc2)c(-c2cc(C)c3c(=O)[nH]ccn23)c1 [BST-4] ?
> 10 µM

====

target: FGFR3 (Homo sapiens, UniProt P22607)
Sequence (P22607 23-806): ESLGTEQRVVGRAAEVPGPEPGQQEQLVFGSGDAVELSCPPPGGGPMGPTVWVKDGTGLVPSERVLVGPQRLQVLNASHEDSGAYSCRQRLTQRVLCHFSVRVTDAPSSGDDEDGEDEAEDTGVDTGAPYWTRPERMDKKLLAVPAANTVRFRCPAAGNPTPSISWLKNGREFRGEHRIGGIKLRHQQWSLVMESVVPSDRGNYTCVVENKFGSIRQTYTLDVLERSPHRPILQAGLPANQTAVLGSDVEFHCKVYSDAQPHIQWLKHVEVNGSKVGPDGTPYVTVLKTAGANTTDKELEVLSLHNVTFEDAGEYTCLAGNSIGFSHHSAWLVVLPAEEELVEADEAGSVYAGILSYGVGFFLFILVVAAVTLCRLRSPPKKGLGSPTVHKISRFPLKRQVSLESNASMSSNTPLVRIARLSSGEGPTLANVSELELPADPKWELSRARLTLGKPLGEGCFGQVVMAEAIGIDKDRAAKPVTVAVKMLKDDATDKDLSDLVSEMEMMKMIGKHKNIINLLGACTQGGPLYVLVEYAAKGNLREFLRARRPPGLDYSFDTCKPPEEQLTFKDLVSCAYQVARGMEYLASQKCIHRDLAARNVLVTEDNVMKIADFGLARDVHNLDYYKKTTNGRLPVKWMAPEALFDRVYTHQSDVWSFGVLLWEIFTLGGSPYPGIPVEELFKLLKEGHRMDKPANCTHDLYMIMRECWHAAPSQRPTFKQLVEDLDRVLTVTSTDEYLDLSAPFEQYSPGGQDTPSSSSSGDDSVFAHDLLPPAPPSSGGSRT
ATTRIBUTE MEASURED: IC50

What measured IC50 goes with CCS(=O)(=O)Cc1cnc(Oc2c(F)cc(F)cc2OCCCCOc2ccc(/C=C/c3cc(OC)cc(OC)c3)cc2)c(-c2cc(C)c3c(=O)[nH]ccn23)c1 ?
> 10 µM

====

biological target: CSK (Homo sapiens, UniProt P41240)
Sequence (P41240 whole entry): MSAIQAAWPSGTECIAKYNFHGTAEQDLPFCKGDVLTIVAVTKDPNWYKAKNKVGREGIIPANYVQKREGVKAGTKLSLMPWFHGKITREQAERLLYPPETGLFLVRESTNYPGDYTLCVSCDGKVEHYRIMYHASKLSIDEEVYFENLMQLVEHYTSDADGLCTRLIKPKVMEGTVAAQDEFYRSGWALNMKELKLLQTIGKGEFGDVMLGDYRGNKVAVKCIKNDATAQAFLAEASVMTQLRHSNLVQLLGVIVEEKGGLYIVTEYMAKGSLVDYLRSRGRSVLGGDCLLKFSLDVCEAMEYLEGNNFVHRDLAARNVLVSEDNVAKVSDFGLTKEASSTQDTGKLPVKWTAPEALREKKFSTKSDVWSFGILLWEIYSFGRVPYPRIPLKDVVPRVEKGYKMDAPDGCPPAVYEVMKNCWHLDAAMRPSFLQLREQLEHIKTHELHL
ATTRIBUTE MEASURED: IC50

Reported IC50 for CSK (Homo sapiens, UniProt P41240), given CCS(=O)(=O)Cc1cnc(Oc2c(F)cc(F)cc2OCCCCOc2ccc(/C=C/c3cc(OC)cc(OC)c3)cc2)c(-c2cc(C)c3c(=O)[nH]ccn23)c1 ?
> 10 µM

====

target: PDGFRA (Homo sapiens, UniProt P16234)
Sequence (P16234 24-1089): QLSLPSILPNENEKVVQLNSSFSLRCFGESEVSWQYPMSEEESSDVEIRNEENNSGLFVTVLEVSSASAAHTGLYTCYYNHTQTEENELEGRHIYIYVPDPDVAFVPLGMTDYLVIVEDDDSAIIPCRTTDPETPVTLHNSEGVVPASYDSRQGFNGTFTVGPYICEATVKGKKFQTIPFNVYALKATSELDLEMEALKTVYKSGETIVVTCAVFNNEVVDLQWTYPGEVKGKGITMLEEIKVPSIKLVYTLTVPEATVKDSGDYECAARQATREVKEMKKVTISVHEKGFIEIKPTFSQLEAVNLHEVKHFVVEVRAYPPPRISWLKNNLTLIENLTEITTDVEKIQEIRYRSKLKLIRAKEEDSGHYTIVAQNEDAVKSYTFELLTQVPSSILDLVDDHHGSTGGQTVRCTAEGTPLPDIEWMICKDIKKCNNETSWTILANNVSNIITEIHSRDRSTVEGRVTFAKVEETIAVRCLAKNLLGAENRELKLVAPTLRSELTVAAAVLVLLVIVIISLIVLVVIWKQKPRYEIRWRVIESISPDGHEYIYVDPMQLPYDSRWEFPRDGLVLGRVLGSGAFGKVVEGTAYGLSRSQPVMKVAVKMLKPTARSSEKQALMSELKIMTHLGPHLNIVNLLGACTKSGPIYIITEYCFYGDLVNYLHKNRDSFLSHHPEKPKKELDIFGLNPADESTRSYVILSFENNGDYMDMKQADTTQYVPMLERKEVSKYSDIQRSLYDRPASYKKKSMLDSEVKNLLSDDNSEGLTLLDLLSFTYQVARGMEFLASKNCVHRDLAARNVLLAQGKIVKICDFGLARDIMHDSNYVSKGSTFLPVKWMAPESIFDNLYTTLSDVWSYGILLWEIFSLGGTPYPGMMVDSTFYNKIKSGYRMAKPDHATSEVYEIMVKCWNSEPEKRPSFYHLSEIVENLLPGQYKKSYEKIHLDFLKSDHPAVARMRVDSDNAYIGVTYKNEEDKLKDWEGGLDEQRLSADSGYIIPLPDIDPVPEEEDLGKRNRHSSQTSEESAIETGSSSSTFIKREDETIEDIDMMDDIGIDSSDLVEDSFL
ATTRIBUTE MEASURED: IC50

I have this compound here, CCS(=O)(=O)Cc1cnc(Oc2c(F)cc(F)cc2OCCCCOc2ccc(/C=C/c3cc(OC)cc(OC)c3)cc2)c(-c2cc(C)c3c(=O)[nH]ccn23)c1 , and I need its recorded IC50.
> 10 µM

====

Biological target: UniProtKB P54753
Sequence (P54753 34-998): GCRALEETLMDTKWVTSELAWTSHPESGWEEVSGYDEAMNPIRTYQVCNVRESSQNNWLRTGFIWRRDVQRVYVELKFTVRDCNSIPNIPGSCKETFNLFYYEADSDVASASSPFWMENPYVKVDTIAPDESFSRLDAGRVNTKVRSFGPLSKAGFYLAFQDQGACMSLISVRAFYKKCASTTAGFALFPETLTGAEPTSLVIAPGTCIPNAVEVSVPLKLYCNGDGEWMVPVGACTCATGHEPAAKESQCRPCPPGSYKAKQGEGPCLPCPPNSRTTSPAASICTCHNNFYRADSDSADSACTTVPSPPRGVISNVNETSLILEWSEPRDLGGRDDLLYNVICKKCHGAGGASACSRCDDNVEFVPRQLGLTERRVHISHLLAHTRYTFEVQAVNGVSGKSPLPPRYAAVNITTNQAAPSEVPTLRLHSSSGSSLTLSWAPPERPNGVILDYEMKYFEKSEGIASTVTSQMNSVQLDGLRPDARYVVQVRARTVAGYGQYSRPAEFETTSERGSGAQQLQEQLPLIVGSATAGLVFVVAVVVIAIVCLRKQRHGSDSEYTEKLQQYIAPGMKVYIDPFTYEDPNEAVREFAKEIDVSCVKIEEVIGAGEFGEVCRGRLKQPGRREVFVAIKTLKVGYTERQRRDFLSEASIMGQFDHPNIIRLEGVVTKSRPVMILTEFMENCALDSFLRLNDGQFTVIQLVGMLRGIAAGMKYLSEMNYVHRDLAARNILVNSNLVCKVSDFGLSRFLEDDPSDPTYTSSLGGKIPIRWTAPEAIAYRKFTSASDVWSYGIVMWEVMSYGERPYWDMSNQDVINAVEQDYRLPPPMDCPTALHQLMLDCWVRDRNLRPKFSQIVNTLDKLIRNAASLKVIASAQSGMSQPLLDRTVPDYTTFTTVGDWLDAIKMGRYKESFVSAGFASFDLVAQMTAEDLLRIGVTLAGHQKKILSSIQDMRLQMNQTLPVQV
ATTRIBUTE MEASURED: IC50

Report IC50 for CCS(=O)(=O)Cc1cnc(Oc2c(F)cc(F)cc2OCCCCOc2ccc(/C=C/c3cc(OC)cc(OC)c3)cc2)c(-c2cc(C)c3c(=O)[nH]ccn23)c1 tested on UniProtKB P54753.
> 10 µM

====

Target: STAT5a (Homo sapiens, UniProt P42229)
Sequence (P42229 1-794): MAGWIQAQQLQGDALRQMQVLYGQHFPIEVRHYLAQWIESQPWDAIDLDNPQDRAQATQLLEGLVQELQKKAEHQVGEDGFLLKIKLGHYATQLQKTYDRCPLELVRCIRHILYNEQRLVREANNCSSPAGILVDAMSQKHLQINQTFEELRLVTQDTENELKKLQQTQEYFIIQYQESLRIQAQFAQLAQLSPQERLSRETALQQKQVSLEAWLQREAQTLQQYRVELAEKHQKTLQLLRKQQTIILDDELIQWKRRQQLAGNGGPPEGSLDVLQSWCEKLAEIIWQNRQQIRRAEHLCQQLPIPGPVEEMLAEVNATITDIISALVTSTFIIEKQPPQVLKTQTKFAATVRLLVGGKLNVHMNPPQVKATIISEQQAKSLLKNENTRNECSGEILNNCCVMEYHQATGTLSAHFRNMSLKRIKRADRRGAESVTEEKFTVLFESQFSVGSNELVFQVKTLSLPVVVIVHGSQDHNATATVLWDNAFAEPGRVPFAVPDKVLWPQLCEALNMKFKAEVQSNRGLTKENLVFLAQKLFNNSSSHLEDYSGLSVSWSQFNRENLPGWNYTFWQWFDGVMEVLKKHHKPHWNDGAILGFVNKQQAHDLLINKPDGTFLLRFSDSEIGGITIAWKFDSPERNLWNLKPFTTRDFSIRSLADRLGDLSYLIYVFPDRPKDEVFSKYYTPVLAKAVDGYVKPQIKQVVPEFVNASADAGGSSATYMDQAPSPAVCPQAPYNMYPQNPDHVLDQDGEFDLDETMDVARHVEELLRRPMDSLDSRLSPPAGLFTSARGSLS
pKd: −log10 of the molar value.
ATTRIBUTE MEASURED: pKd

Dear colleague, I am looking for the recorded pKd of the following molecule: CCS(=O)(=O)Cc1cnc(Oc2c(F)cc(F)cc2OCCCCOc2ccc(/C=C/c3cc(OC)cc(OC)c3)cc2)c(-c2cc(C)c3c(=O)[nH]ccn23)c1
< 5.00

====

target: FLT3 (Homo sapiens)
Sequence (P36888 27-993): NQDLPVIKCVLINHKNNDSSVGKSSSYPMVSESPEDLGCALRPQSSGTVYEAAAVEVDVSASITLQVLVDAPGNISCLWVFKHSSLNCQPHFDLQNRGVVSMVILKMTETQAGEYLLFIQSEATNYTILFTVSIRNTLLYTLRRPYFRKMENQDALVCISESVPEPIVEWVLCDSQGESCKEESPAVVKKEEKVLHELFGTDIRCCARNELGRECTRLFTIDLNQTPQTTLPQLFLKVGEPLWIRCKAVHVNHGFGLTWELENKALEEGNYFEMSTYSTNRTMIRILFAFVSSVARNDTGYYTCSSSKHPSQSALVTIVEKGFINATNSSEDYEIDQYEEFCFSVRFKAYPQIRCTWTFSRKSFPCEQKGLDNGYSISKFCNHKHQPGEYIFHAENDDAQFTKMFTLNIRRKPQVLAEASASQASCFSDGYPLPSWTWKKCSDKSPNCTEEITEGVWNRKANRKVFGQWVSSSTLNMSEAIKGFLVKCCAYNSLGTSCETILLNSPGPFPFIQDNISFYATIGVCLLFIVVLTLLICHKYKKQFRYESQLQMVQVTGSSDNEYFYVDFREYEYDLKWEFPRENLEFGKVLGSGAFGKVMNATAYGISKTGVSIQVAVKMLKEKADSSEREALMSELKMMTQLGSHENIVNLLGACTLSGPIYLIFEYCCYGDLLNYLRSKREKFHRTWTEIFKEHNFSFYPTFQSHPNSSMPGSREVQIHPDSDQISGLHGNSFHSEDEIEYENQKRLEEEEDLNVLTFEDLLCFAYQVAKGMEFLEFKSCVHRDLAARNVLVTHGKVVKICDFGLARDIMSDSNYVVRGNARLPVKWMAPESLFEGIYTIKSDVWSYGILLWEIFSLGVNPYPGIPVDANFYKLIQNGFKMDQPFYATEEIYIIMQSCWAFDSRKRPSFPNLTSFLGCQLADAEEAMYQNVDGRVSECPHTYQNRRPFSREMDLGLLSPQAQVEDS
pIC50: −log10 of the molar value.
ATTRIBUTE MEASURED: pIC50

Lookup: pIC50 / FLT3 (Homo sapiens) / CCS(=O)(=O)Cc1cnc(Oc2c(F)cc(F)cc2OCCCCOc2ccc(/C=C/c3cc(OC)cc(OC)c3)cc2)c(-c2cc(C)c3c(=O)[nH]ccn23)c1 [BST-4]
< 5.00
